B1: Azoarcus group I ribozyme (parent)
chain: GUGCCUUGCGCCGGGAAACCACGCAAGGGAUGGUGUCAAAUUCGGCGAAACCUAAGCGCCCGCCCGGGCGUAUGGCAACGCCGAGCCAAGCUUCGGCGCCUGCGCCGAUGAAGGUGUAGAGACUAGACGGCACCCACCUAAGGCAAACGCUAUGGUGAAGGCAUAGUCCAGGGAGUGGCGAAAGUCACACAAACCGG

Variants of: B1
measurement-protocol: reverse-splicing fitness (ratio to wild type); higher = more active; in vitro selection; Mg2+ level not given
measured-metric: reverse-splicing fitness
Enter the number alone.

The examples below pair each entry with its known result.
INSERT INTO measurements (mutation_string, measured) VALUES
  ('C82G A111C A120U A145C C150A U176G', 0.00247),
  ('C82U A111U A120U A145C C150U C169G U176G', 0.00171),
  ('C82G A111C A120G C169A U176A', 0.016);

*Q* Return reverse-splicing fitness (reported value) for this variant: A111U A120C C150G C169A U176C
*A* 0.0104

*Q* Return reverse-splicing fitness (reported value) for this variant: A111C A145U C150G C169G
*A* 0.0101

*Q* Return reverse-splicing fitness (reported value) for this variant: C82G A111C A120G A145C C169U
*A* 0.00967

*Q* Return reverse-splicing fitness (reported value) for this variant: C82U A111G A120G C150A C169U
*A* 0.00735

*Q* Return reverse-splicing fitness (reported value) for this variant: C82G A111G A145G C169G U176G
*A* 0.00505

Hello, the source for this data is the RNAGym collection of RNA variant scans (doi:10.1093/molbev/msab373), in case you need it.
